Listing of entries alongside the reported FACS-Seq fitted mean (log10).
B1: library; a variant is named by its letters at N, in order (parent)
chain: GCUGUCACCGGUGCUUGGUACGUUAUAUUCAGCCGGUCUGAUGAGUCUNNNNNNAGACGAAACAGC

Variants of: B1
assayRemarks: FACS-Seq fitted mean relative fluorescence mCherry/BFP without ligand (log10 relative fluorescence); HEK293T overexpressing SLC46A1; higher = higher reporter protein expression
conditions: without (6R,S)-folinic acid; ligand present: no
Answer field: number only, no words.

Worked cases, answers included:
sequenceChain	FACS-Seq fitted mean (log10)
GCUGUCACCGGUGCUUGGUACGUUAUAUUCAGCCGGUCUGAUGAGUCUUGAGAUAGACGAAACAGC [UGAGAU]	0.457
GCUGUCACCGGUGCUUGGUACGUUAUAUUCAGCCGGUCUGAUGAGUCUCAAGGGAGACGAAACAGC [CAAGGG]	-0.428
GCUGUCACCGGUGCUUGGUACGUUAUAUUCAGCCGGUCUGAUGAGUCUUAAGCGAGACGAAACAGC [UAAGCG]	0.384
GCUGUCACCGGUGCUUGGUACGUUAUAUUCAGCCGGUCUGAUGAGUCUGUGAGAAGACGAAACAGC [GUGAGA]	0.474
GCUGUCACCGGUGCUUGGUACGUUAUAUUCAGCCGGUCUGAUGAGUCUUGGAGUAGACGAAACAGC [UGGAGU]	0.504
GCUGUCACCGGUGCUUGGUACGUUAUAUUCAGCCGGUCUGAUGAGUCUGUGUCAAGACGAAACAGC [GUGUCA]	0.425
GCUGUCACCGGUGCUUGGUACGUUAUAUUCAGCCGGUCUGAUGAGUCUAAUUGAAGACGAAACAGC [AAUUGA]	0.309
GCUGUCACCGGUGCUUGGUACGUUAUAUUCAGCCGGUCUGAUGAGUCUAAUGGGAGACGAAACAGC [AAUGGG]	0.225
GCUGUCACCGGUGCUUGGUACGUUAUAUUCAGCCGGUCUGAUGAGUCUGGGUACAGACGAAACAGC [GGGUAC]	0.536
GCUGUCACCGGUGCUUGGUACGUUAUAUUCAGCCGGUCUGAUGAGUCUACCUAUAGACGAAACAGC [ACCUAU]	0.349

Qu. Please look up its FACS-Seq fitted mean (log10): GCUGUCACCGGUGCUUGGUACGUUAUAUUCAGCCGGUCUGAUGAGUCUUCAGAUAGACGAAACAGC [UCAGAU]
Ans. 0.523

Qu. Please look up its FACS-Seq fitted mean (log10): GCUGUCACCGGUGCUUGGUACGUUAUAUUCAGCCGGUCUGAUGAGUCUUGAACGAGACGAAACAGC [UGAACG]
Ans. 0.174
